test.system: UniProt:Q9NPD5
Sequence (Q9NPD5 whole entry): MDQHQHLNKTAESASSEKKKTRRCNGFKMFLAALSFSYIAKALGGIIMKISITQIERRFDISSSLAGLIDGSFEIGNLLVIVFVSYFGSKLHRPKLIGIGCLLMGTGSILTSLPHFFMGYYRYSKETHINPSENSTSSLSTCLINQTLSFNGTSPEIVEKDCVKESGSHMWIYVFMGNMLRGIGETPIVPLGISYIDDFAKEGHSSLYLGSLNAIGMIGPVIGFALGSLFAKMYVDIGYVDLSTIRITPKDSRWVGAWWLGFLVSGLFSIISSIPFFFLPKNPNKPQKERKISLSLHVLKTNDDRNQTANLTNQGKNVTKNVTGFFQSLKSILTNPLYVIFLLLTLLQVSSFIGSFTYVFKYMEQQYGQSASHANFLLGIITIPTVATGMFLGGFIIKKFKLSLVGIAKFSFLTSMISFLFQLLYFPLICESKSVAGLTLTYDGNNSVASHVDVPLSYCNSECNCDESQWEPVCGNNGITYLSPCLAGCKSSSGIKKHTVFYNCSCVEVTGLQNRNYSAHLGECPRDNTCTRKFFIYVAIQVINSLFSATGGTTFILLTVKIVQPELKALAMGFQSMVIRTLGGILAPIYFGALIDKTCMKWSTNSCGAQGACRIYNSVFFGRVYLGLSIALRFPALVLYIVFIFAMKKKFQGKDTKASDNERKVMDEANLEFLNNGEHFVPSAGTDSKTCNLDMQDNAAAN
condition.info: chinese hamster, cho, 10 µM
Residues, ends and D or L forms follow the SMILES beside them.
Catalogue of residual activity readings, one per entry.
value.kind: residual activity

>>> observed_result("COc1ccc2c(c1OC)C(=O)O[C@@H]2[C@H]1c2c(cc3c(c2OC)OCO3)CCN1C.Cl [NOSCAPINE HYDROCHLORIDE]")
"93.17%"
>>> observed_result("CCN(CC)C(=O)N1CCN(C)CC1.O=C(O)CC(O)(CC(=O)O)C(=O)O [DIETHYLCARBAMAZINE CITRATE]")
"81.28%"
>>> observed_result("CC(C)=CCC[C@@H](C)[C@H]1CC[C@@]2(C)C3=C(CC[C@]12C)[C@@]1(C)CC[C@H](O)C(C)(C)[C@@H]1CC3 [LANOSTEROL]")
"90.91%"
>>> observed_result("CC(C)CCC[C@@H](C)[C@H]1CC[C@H]2[C@@H]3CC=C4C[C@@H](O)CC[C@]4(C)[C@H]3CC[C@]12C [CHOLESTEROL]")
"100%"
>>> observed_result("COc1cc(OC)c2c(=O)c(-c3ccccc3)coc2c1 [5,7-DIMETHOXYISOFLAVONE]")
"104.7%"
>>> observed_result("CC(C)[C@H](N)C(=O)N[C@@H](Cc1c[nH]c2ccccc12)C(=O)O [VALYLTRYPTOPHAN] (H-Val-Trp-OH)")
"102.8%"
>>> observed_result("CCCN(CCC)C(=O)C(CCC(=O)O)NC(=O)c1ccccc1 (configuration not stated) [PROGLUMIDE]")
"104.8%"
>>> observed_result("CCOP(=S)(OCC)SCSCC [PHORATE]")
"107.3%"
>>> observed_result("O=C(O)CCCN1C(=O)c2cccc3cccc(c23)C1=O")
"112.7%"
>>> observed_result("COC1(C)CCC2OC2(C)CCC2C1CC2(C)C (configuration not stated)")
"93.07%"
>>> observed_result("O=C(O)c1cc(-c2ccc(F)cc2F)ccc1O [DIFLUNISAL]")
"87.47%"
>>> observed_result("COC(=O)[C@]1(C)CCC[C@]2(C)c3ccc(C(C)C)cc3C(=O)CC12 (some centres not stated) [7-OXOCALLITRISIC ACID, METHYL ESTER]")
"105.6%"
>>> observed_result("O=C(OCc1ccccc1)c1ccccc1 [BENZYL BENZOATE]")
"74.09%"
>>> observed_result("CC(=O)O[C@@H]1CC2C(C)(C)[C@H](O)C[C@H](O)[C@@]2(C)C2CC[C@]3(C)C(=CC(=O)O[C@@H]3c3ccoc3)[C@]21C (some centres not stated) [1,3-DIDEACETYLDEOXYKHIVORIN]")
"50.83%"
>>> observed_result("Cc1onc(-c2ccccc2)c1-c1ccc(S(N)(=O)=O)cc1 [VALDECOXIB]")
"94.41%"
>>> observed_result("NC(=O)c1cccc(N)c1 [3-AMINOBENZAMIDE]")
"110.7%"
>>> observed_result("C[C@](N)(Cc1ccc(O)cc1)C(=O)O [METYROSINE]")
"84.41%"
>>> observed_result("COc1ccc(-c2coc3c(O)c(OC)ccc3c2=O)cc1 [RETUSIN 7-METHYL ETHER]")
"107.3%"
>>> observed_result("C[C@H]1CC[C@]2(NC1)O[C@H]1C[C@H]3[C@@H]4CC[C@H]5C[C@@H](O[C@@H]6O[C@H](CO)[C@H](O[C@@H]7O[C@H](CO)[C@@H](O)[C@H](O[C@@H]8OC[C@@H](O)[C@H](O)[C@H]8O)[C@H]7O[C@@H]7O[C@H](CO)[C@@H](O)[C@H](O)[C@H]7O)[C@H](O)[C@H]6O)CC[C@]5(C)[C@H]4CC[C@]3(C)[C@H]1[C@@H]2C [TOMATINE]")
"100.3%"
>>> observed_result("Cn1nnnc1SCC1=C(C(=O)[O-])N2C(=O)[C@@H](NC(=O)[C@H](OC=O)c3ccccc3)[C@H]2SC1.[Na+] [CEFAMANDOLE NAFATE]")
"64.97%"
>>> observed_result("C=CCSCC=C [DIALLYL SULFIDE]")
"95.82%"
>>> observed_result("O=[N+]([O-])O[C@H]1CO[C@H]2[C@@H]1OC[C@H]2O[N+](=O)[O-] [ISOSORBIDE DINITRATE]")
"114.2%"
>>> observed_result("NC1(C(=O)O)CC1 [1-Aminocyclopropane carboxylic acid]")
"99.32%"
>>> observed_result("NC(=O)c1ccc([N+](=O)[O-])cc1Cl [AKLOMIDE]")
"100.2%"
>>> observed_result("N=c1[nH]c(=O)c2[nH]c(=O)c(=O)[nH]c2[nH]1 [LEUCOPTERIN]")
"98.11%"
>>> observed_result("Cl.Clc1ccc(C(OCCN2CCCCC2)c2ccccc2)cc1 (configuration not stated) [CLOPERASTINE HYDROCLORIDE]")
"89.01%"
>>> observed_result("CCCC(C(=O)OCCN(CC)CC)(c1ccccc1)c1ccccc1.Cl [PROADIFEN HYDROCHLORIDE]")
"53.55%"
>>> observed_result("CC/C(=C(/CC)c1ccc(O)cc1)c1ccc(O)cc1 [DIETHYLSTILBESTROL]")
"45.56%"
>>> observed_result("COC(=O)[C@H](c1ccccc1Cl)N1CCc2sccc2C1.O=S(=O)(O)O [CLOPIDOGREL BISULFATE]")
"96.14%"
>>> observed_result("CCC1(C2=NCCN2)Cc2ccccc2O1.Cl (configuration not stated) [EFAROXAN HYDROCHLORIDE]")
"83.03%"
>>> observed_result("CCN(CC)CCNC(=O)c1ccc(N)cc1.Cl [PROCAINAMIDE HYDROCHLORIDE]")
"104.4%"
>>> observed_result("CNC(=O)Oc1ccc2c(c1)[C@]1(C)CCN(C)[C@@H]1N2C.CNC(=O)Oc1ccc2c(c1)[C@]1(C)CCN(C)[C@@H]1N2C.O=S(=O)(O)O [PHYSOSTIGMINE SULFATE]")
"99.93%"
